# Measured On: Bcl-2-related protein A1 (Homo sapiens, UniProt Q16548)
# Sequence (Q16548 whole entry): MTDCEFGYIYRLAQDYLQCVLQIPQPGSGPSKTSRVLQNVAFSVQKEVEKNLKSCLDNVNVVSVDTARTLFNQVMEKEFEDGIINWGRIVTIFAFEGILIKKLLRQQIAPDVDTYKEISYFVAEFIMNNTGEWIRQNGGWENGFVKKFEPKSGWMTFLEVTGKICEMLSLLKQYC
# Test Description: Inhibition of BH3 peptide binding to human recombinant A1 by fluorescence polarization assay
Attribute Measured: pKi
# pKi: negative log10 of molar concentration; output just the value

Request body: readout pKi, system Bcl-2-related protein A1 (Homo sapiens, UniProt Q16548), query COC1=CC(c2cc3ccccc3[nH]2)=N/C1=C\c1[nH]c(C)cc1C . Return the value.
6.00

###

# Measured On: Bcl-2-like protein 10 (Homo sapiens)
# Sequence (Q9HD36 whole entry): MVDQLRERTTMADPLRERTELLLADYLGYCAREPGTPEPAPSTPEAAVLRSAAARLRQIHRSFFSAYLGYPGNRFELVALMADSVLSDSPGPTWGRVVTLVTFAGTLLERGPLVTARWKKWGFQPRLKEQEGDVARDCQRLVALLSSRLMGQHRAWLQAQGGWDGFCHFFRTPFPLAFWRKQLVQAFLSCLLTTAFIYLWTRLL
# Test Description: Inhibition of BH3 peptide binding to human recombinant BCL-b by fluorescence polarization assay
Attribute Measured: pKi
Expect pKi as a plain number equal to -log10 of the molar concentration.

Entry COC1=CC(c2cc3ccccc3[nH]2)=N/C1=C\c1[nH]c(C)cc1C [OBATOCLAX] , system Bcl-2-like protein 10 (Homo sapiens): what pKi was measured?
6.00
